Target protein (sequence): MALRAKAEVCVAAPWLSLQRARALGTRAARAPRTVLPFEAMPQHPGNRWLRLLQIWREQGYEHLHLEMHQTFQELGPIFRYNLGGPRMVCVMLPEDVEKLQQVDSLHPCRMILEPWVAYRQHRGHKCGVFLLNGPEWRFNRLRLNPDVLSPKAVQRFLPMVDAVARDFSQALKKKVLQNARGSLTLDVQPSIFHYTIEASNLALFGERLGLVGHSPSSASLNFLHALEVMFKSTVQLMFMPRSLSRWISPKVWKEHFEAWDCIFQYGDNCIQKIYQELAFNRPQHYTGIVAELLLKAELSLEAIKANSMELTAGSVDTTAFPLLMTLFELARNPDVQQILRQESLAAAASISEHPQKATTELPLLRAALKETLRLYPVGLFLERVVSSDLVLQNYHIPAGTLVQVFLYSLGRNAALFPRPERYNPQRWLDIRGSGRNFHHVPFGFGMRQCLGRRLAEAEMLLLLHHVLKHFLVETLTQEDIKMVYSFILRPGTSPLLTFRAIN
Endpoint label: IC50 (nM)

Sample records with IC50:
FC(F)(F)c1ccc(-c2ccncc2)c(OCCc2ccccc2)c1; 24
COc1ccc(-c2cccnc2)c(OCCc2ccccc2)c1; 230

a: O=[N+]([O-])c1ccc(-c2cccnc2)c(OCCc2ccccc2)c1
b: CC(=O)Nc1ccc(-c2cccnc2)c(OCc2ccccc2)c1
Hey, between a and b which has a smaller measured IC50? Refer to your chosen entry by its label in the reply. a
(a: 53 nM, b: 643 nM)

====

Species: Homo sapiens
Test: Selectivity index, ratio of IC50 for human CYP11B2 to IC50 for human CYP11B1
Endpoint label: Selectivity Index

Sample records with Selectivity Index:
FC(F)(F)c1ccc(-c2ccncc2)c(OCCc2ccccc2)c1; 0.9
FC(F)(F)c1ccc(-c2cccnc2)c(OCCc2ccccc2)c1; 1.2

P: N#Cc1ccc(-c2cccnc2)c(OCCc2ccccc2)c1
Q: O=[N+]([O-])c1ccc(-c2ccncc2)cc1OCCc1ccccc1
I need your help: which of the pair P , Q has higher Selectivity Index? Refer to your chosen entry by its label in the reply. P

====

Test: Retention time of the compound by HPLC analysis
Format: physicochemical
Endpoint label: Retention_time (min)

O=[N+]([O-])c1ccc(Cc2ccncc2)c(OCCc2ccccc2)c1; 9.55
N#Cc1ccc(-c2ccncc2)c(OCCc2ccccc2)c1; 8.71
Fc1ccc(-c2cccnc2)c(OCCc2ccccc2)c1; 9.57
FC(F)(F)c1ccc(-c2cccnc2)c(OCCc2ccccc2)c1; 10.3
O=[N+]([O-])c1ccc(-c2ccncc2)c(OCCc2ccccc2)c1; 9.21
O=[N+]([O-])c1ccc(-c2cccnc2)c(OCCc2ccccc2)c1; 9.13
COc1ccc(-c2ccncc2)c(OCCc2ccccc2)c1; 9.2
O=[N+]([O-])c1ccc(-c2cccnc2)cc1OCCc1ccccc1; 9.8
O=[N+]([O-])c1ccc(-c2ccncc2)c(OCCCc2ccccc2)c1; 9.33
O=[N+]([O-])c1ccc(-c2cccnc2)c(OCCCc2ccccc2)c1; 9.28
CC(=O)Nc1ccc(-c2cccnc2)c(OCc2ccccc2)c1; 7.25

====

pIC50: −log10 of the molar value.
// each record: one item and its pIC50 for Cytochrome P450 11B1, mitochondrial (Homo sapiens, UniProt P15538)
Endpoint label: pIC50

Sample records with pIC50:
Fc1ccc(-c2ccncc2)c(OCCc2ccccc2)c1; 7.22
O=[N+]([O-])c1ccc(-c2cccnc2)cc1OCCc1ccccc1; 6.29
CN(C)C(=O)c1ccc(-c2cccnc2)c(OCCc2ccccc2)c1; 6.23
c1ccc(CCOc2cccnc2-c2cccnc2)cc1; 5.78
O=[N+]([O-])c1ccc(-c2cccnc2)c(OCCc2ccccc2)c1; 7.89

1: O=[N+]([O-])c1ccc(-c2ccncc2)c(OCCc2ccccc2)c1
2: Fc1ccc(-c2cccnc2)c(OCCc2ccccc2)c1
Hey, between 1 and 2 which has a smaller measured pIC50? Refer to your chosen entry by its label in the reply. 2
